B1: STK38L (parent)
chain: FLPGGDMMTLLMKKDTLTEEETQF

- Variants of: B1
- PROTOCOL SUMMARY: protein stability index of a GFP-peptide fusion (GPS, HEK-293T) (PSI 1-6); higher = more stable;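 also: lentivirally expressed fusions sorted by FACS into six bins by GFP to DsRed ratio, PSI derived from sequencing read proportions per bin multiplied by bin number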
- TEST CONDITIONS: c terminus: a fixed tail appended
ENDPOINT NAME: protein stability index

>>> result_value("L10W")
1.98
>>> result_value("T18W")
2.17
>>> result_value("Q23F")
1.24
>>> result_value("G5S")
3.21
>>> result_value("K13F")
2.21
>>> result_value("D6P")
1.87
>>> result_value("L10E")
4.71
>>> result_value("K14D")
2.92
>>> result_value("L11S")
3.41

These measurements were taken from the supplement of paper PMC10567573.
